The values you see were collected from ChEMBL document CHEMBL1145959.

- Measurement protocol: Peak plasma level of compound (10 mg/kg) administered orally to rats after 60 min was determined
- Assay type: ADME, organism-based
- Parameters: dose 10 mg/kg, route oral
- Test conditions: rat, po
Metric name: Cmax (nM)

>  <Smiles structure>
O=C(c1cc(Cc2ccccc2)cc(CN2CCCS2(=O)=O)c1)c1ncc2cccnc2c1O

>  <Metric name>
Cmax

>  <Assay value>
1170

$$$$

----------
- Tested on: MT4
- Measurement protocol: Cell culture inhibitory concentration which inhibits 95% spread of HIV infection in cell culture, using HIV-1 IIIB variant and MT-4 T-lymphoid cells
- Format: functional
- Test conditions: Homo sapiens, read-out: CIC95

>  <Smiles structure>
O=c1c2cc(Cc3ccccc3)ccc2oc2ccc(O)c(O)c12

>  <Reading unit>
µM

>  <Limit operator>
=

>  <IC95>
6

$$$$
>  <Smiles structure>
O=C(c1cccc(Cc2ccccc2)c1)c1ncc2cccnc2c1O

>  <Reading unit>
µM

>  <Limit operator>
=

>  <IC95>
6.2

$$$$
>  <Smiles structure>
O=C(O)C(=O)CC(=O)c1cccc(Cc2ccccc2)c1

>  <Reading unit>
µM

>  <Limit operator>
=

>  <IC95>
1.11

$$$$
>  <Smiles structure>
O=C(c1cc(Cc2ccccc2)cc(CN2CCCS2(=O)=O)c1)c1ncc2cccnc2c1O

>  <Reading unit>
µM

>  <Limit operator>
=

>  <IC95>
0.39

$$$$
>  <Smiles structure>
O=C(c1cccc(Cc2ccccc2)c1)c1oc2cccnc2c1O

>  <Reading unit>
µM

>  <Limit operator>
>

>  <IC95>
50

$$$$
>  <Smiles structure>
O=C(c1cc(Cc2ccccc2)ccn1)c1ccc2cccnc2c1O

>  <Reading unit>
µM

>  <Limit operator>
=

>  <IC95>
2.5

$$$$
>  <Smiles structure>
O=C(c1cccc(Cc2ccccc2)c1)c1ccc2cccnc2c1O

>  <Reading unit>
µM

>  <Limit operator>
=

>  <IC95>
5

$$$$

----------
- System under test: Human immunodeficiency virus type 1 integrase (Human immunodeficiency virus 1)
- Sequence (Q7ZJM1 whole entry): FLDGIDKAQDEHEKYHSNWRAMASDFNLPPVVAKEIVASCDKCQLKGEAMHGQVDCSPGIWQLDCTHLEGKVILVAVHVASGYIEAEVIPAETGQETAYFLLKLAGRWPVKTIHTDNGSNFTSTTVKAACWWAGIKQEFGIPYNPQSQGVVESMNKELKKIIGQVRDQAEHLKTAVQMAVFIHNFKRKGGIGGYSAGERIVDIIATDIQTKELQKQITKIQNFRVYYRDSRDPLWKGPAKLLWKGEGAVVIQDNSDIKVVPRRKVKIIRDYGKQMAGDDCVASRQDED
pIC50: −log10 of the molar value.
Everything with pIC50 lower than 7 is N; everything else, including exactly 7, is Y.

>  <Smiles structure>
O=C(c1cc(Cc2ccccc2)cc(CN2CCCS2(=O)=O)c1)c1ncc2cccnc2c1O

>  <Assigned category>
Y

$$$$
>  <Smiles structure>
O=C(c1cccc(Cc2ccccc2)c1)c1ncc2cccnc2c1O

>  <Assigned category>
Y

$$$$
>  <Smiles structure>
O=C(c1cccc(Cc2ccccc2)c1)c1oc2cccnc2c1O

>  <Assigned category>
N

$$$$
>  <Smiles structure>
O=c1c2cc(Cc3ccccc3)ccc2oc2ccc(O)c(O)c12

>  <Assigned category>
N

$$$$
>  <Smiles structure>
O=C(O)C(=O)CC(=O)c1cccc(Cc2ccccc2)c1

>  <Assigned category>
Y

$$$$
>  <Smiles structure>
O=C(c1cc(Cc2ccccc2)ccn1)c1ccc2cccnc2c1O

>  <Assigned category>
Y

$$$$
